Hey, just so you know, these numbers are from patent EP4714948A1.

# experimental-details: Pharmacokinetic test on male SD rats
# Format: in vivo
# measurement-conditions: rat, po, gavage (p.o.), 10 mg/kg, plasma
assay-endpoint: AUC(0-t) (ng·h/mL)

compound: COc1cc(N2CCN(C(=O)CN3CCC(c4ccc(NC5CCC(=O)NC5=O)cc4)CC3)CC2)ccc1Nc1ncc(Cl)c(Nc2ccccc2C(C)=O)n1 (centres unmarked) [Control Compound 1, reference compound]
data-value: 2060
--
compound: CCc1cc(Nc2ncc(Cl)c(Nc3ccccc3C(=O)NC)n2)c(OC)cc1N1CCN(C(=O)CN2CCC(c3ccc(NC4CCC(=O)NC4=O)cc3C(F)(F)F)CC2)CC1 (centres unmarked) [Compound T-074]
data-value: 16900
--
compound: CCc1cc(Nc2ncc(Br)c(Nc3ccccc3C(=O)NC)n2)c(OC)cc1N1CCN(C(=O)CN2CCC(c3ccc4c(N5CCC(=O)NC5=O)nn(C)c4c3)C(F)(F)C2)CC1 (centres unmarked) [Compound T-014]
data-value: 4510

A = CCc1cc(Nc2ncc(Cl)c(Nc3ccccc3C(=O)NC)n2)c(OC)cc1N1CCN(CCN2CCC(c3ccc(NC4CCC(=O)NC4=O)cc3)CC2)CC1 (centres unmarked) [Compound T-023]
B = CCc1cc(Nc2ncc(Cl)c(Nc3ccccc3C(=O)NC)n2)c(OC)cc1N1CCN(C(=O)CN2CCC(c3ccc(NC4CCC(=O)NC4=O)cc3F)CC2)CC1 (centres unmarked) [Compound T-067]
Task: Given the listed items, does A or B have the lesser reported AUC(0-t)? I would appreciate it if you answered with the label of your choice.
Result: B
(B: 11000 ng·h/mL, A: 61600 ng·h/mL)
